Origin of measurements: patent US20080255155A1

- test.system: VEGF receptor KDR (Homo sapiens, UniProt P35968)
- Sequence (P35968 806-1356): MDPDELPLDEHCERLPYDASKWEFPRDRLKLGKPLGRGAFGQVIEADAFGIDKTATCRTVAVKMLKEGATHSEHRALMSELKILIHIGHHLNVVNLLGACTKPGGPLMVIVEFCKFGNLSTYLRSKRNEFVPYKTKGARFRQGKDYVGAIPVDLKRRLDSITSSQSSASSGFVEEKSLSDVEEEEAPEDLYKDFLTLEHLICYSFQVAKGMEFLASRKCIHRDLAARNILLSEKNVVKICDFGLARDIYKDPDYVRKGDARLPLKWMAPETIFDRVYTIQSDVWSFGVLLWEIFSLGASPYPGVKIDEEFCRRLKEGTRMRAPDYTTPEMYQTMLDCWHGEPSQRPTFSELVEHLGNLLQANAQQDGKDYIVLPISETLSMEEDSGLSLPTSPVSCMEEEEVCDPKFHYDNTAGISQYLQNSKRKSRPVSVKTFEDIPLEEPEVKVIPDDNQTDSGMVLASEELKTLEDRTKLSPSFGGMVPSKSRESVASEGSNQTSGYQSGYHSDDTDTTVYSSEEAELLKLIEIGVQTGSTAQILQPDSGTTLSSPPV
- method.description: In vitro receptor tyrosine kinase assay, VEGF receptor KDR (DELFIA)
- applied.conditions: ATP 0.6 uM, enzyme 5 nM; read-out: Potency in enzyme assays VEGF
test.readout: IC50

// for each compound in input: emit IC50
1. CN(C)CCCNC(=O)Nc1cc(Oc2ccc(NC(=O)N3CCN(c4ccccc4)C3=O)cc2F)ccn1 [Compound 18c]
2. O=C(NCCN1CCOCC1)c1cc(Oc2ccc(NC(=O)N3CCN(c4ccccc4)C3=O)cc2F)ccn1 [Compound 87c]
3. CN(C)CCCOC(=O)Nc1cc(Oc2ccc(NC(=O)N3CCN(c4ccccc4)C3=O)cc2F)ccn1 [Compound 18i]

1: ≥ 1000 nM; 2: ≥ 1000 nM; 3: ≥ 1000 nM

* * *

- test.system: VEGF receptor KDR (Homo sapiens, UniProt P35968)
- method.description: In vitro receptor tyrosine kinase assay, VEGF receptor KDR (DELFIA)
- applied.conditions: ATP 0.6 uM, enzyme 5 nM; read-out: Potency in enzyme assays VEGF
Please provide measured IC50 for the entries that follow.

Fill in: IC50 of O=C(Nc1ccc(Oc2ccnc(Nc3ccccc3)n2)c(F)c1)N1CCN(c2ccccc2)C1=O [Compound 61a] is ___ ≥ 1 µM

Fill in: IC50 of O=C(Nc1ccc(Oc2ccncc2)c(F)c1)N1CCN(c2cccc(Cl)c2)C1=O [Compound 21g] is ___ ≥ 1 µM

Fill in: IC50 of COc1ccc(Nc2nccc(Oc3ccc(NC(=O)N4CCN(c5ccccc5)C4=O)cc3F)n2)cc1 [Compound 61b] is ___ ≥ 1 µM

Fill in: IC50 of O=C(Nc1ccc(Oc2ccncc2)c(F)c1)N1CCN(c2ccc(Cl)cc2)C1=O [Compound 21f] is ___ ≥ 1 µM

// for each compound in input: emit IC50
1. CN(C)[C@@H]1CCN(C(=O)Nc2cc(Oc3ccc(NC(=O)N4CCN(c5ccc(F)cc5)C4=O)cc3F)ccn2)C1 [Compound 18g]
2. CC(=O)Nc1ccc(Oc2cccc(NC(=O)N3CCN(c4ccccc4)C3=O)c2)cn1 [Compound 31a]
3. CN(C)[C@H]1CCN(C(=O)Nc2cc(Oc3ccc(NC(=O)N4CCN(c5ccc(F)cc5)C4=O)cc3F)ccn2)C1 [Compound 18h]

1: < 0.25 µM; 2: ≥ 1 µM; 3: < 0.25 µM

* * *

- test.system: recombinant human c-Met/HGF receptor (Homo sapiens, UniProt P08581)
- Construct: His tag
- Sequence (P08581 1078-1337): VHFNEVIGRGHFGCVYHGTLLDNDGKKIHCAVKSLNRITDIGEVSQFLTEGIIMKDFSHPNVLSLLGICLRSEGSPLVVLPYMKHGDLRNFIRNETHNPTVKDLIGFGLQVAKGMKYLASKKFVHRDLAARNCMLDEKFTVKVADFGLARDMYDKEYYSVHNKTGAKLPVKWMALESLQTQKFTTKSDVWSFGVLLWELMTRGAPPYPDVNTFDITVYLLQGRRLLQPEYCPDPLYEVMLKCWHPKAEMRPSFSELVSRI
- method.description: In vitro receptor tyrosine kinase assay, c-Met (DELFIA)
- applied.conditions: ATP 10 uM, enzyme 25 nM; read-out: Potency in enzyme assays Cmet
Please provide measured IC50 for the entries that follow.

Some entries whose results are on file:
Fill in: IC50 of O=C(Nc1ccc(Oc2ccnc(Nc3ccccc3)c2)c(F)c1)N1CCN(c2ccccc2)C1=O is ___ < 0.25 µM

Fill in: IC50 of O=C(CC(Nc1ccc(F)cc1)C(F)(F)F)Nc1ccc(Oc2cc(NC(=O)N3CCCC3)ncn2)c(F)c1 (centres unmarked) is ___ ≥ 1 µM

Fill in: IC50 of CNC(=O)c1cc(Oc2ccc(NC(=O)N3CCN(c4ccc(F)cc4)C3=O)cc2F)ccn1 [Compound 87b] is ___ 0.5 to 1 µM

Fill in: IC50 of CNC(=O)c1cc(Oc2ccc(NC(=O)N3CCN(c4ccccc4)C3=O)cc2F)ccn1 [Compound 87a] is ___ 0.25 to 0.5 µM

// for each molecule in input: emit IC50
1. CN(C)CCOC(=O)Nc1cc(Oc2ccc(NC(=O)N3CCN(c4ccccc4)C3=O)cc2F)ccn1 [Compound 18d]
2. O=C(Nc1ccc(Oc2ccncc2)c(F)c1)N1CCN(c2cccc(Cl)c2)C1=O [Compound 21g]
3. O=C(Nc1ccc(Oc2ccncc2)c(F)c1)N1CCN(c2ccc(Cl)cc2)C1=O [Compound 21f]

1. 0.25 to 0.5 µM
2. 0.5 to 1 µM
3. 0.25 to 0.5 µM

Fill in: IC50 of O=C(Nc1cc(Oc2ccc(NC(=O)N3CCN(c4ccccc4)C3=O)cc2F)ncn1)N1CCCC1 is ___ < 0.25 µM

* * *

Please provide measured IC50 for the entries that follow.
- Tested on: A549
- method.description: A549 wound healing inhibition
- applied.conditions: Homo sapiens; A549 cells; read-out: Potency in cell-based assays A549 wound healing inhibition

Some entries whose results are on file:
Fill in: IC50 of O=C(Nc1cc(Oc2ccc(NC(=O)N3CCN(c4ccc(F)cc4)C3=O)cc2F)ccn1)N1CCCC1 [Compound 18b] is ___ ≥ 1 µM

Fill in: IC50 of O=C(CC(Nc1ccc(F)cc1)C(F)(F)F)Nc1ccc(Oc2cc(NC(=O)N3CCCC3)ncn2)c(F)c1 (centres unmarked) is ___ 1 to 5 µM

Fill in: IC50 of CN(C)[C@H]1CCN(C(=O)Nc2cc(Oc3ccc(NC(=O)N4CCN(c5ccc(F)cc5)C4=O)cc3F)ccn2)C1 [Compound 18h] is ___ ≥ 1 µM

Fill in: IC50 of CNC(=O)c1cc(Oc2ccc(NC(=O)N3CCN(c4ccc(F)cc4)C3=O)cc2F)ccn1 [Compound 87b] is ___ 1 to 5 µM

Fill in: IC50 of O=C(Nc1ccc(Oc2ccncc2)c(F)c1)N1CCN(c2ccc(Cl)cc2)C1=O [Compound 21f] is ___ 1 to 5 µM

// for each molecule in input: emit IC50
1. CN(C)[C@@H]1CCN(C(=O)Nc2cc(Oc3ccc(NC(=O)N4CCN(c5ccccc5)C4=O)cc3F)ccn2)C1 [Compound 18e]
2. O=C(Nc1ccc(Oc2ccncc2)c(F)c1)N1CCN(c2ccccc2Cl)C1=O [Compound 21h]
3. O=C(NCCN1CCOCC1)c1cc(Oc2ccc(NC(=O)N3CCN(c4ccccc4)C3=O)cc2F)ccn1 [Compound 87c]
4. O=C(Nc1ccc(Oc2ccncc2)c(F)c1)N1CCN(c2cccc(Cl)c2)C1=O [Compound 21g]
5. O=C(Nc1ccc(Oc2cc(NC(=O)N3CCCC3)ncn2)c(F)c1)C1CCN(c2ccccc2)C1=O (centres unmarked)
6. O=C(Nc1ccc(Oc2ccnc(Nc3ccccc3)c2)c(F)c1)N1CCN(c2ccccc2)C1=O
7. CC(=O)Nc1ccc(Oc2cccc(NC(=O)N3CCN(c4ccccc4)C3=O)c2)cn1 [Compound 31a]

1: ≥ 1 µM; 2: 1 to 5 µM; 3: > 10 µM; 4: 5 to 10 µM; 5: 5 to 10 µM; 6: 1 to 5 µM; 7: 1 to 5 µM

* * *

Please provide measured pIC50 for the entries that follow.
- test.system: VEGF receptor KDR (Homo sapiens)
- method.description: In vitro receptor tyrosine kinase assay, VEGF receptor KDR (DELFIA)
- applied.conditions: ATP 0.6 uM, enzyme 5 nM; read-out: Potency in enzyme assays VEGF
pIC50: −log10 of the molar value.

Some entries whose results are on file:
Please state recorded pIC50 (tested on VEGF receptor KDR (Homo sapiens)) of O=C(Nc1cc(Oc2ccc(NC(=O)N3CCN(c4ccccc4)C3=O)cc2F)ncn1)N1CCCC1 > 6.60

Please state recorded pIC50 (tested on VEGF receptor KDR (Homo sapiens)) of O=C(Nc1ccc(Oc2ccnc(Nc3ccccc3)c2)c(F)c1)N1CCN(c2ccccc2)C1=O ≤ 6.00

Please state recorded pIC50 (tested on VEGF receptor KDR (Homo sapiens)) of CNC(=O)c1cc(Oc2ccc(NC(=O)N3CCN(c4ccc(F)cc4)C3=O)cc2F)ccn1 [Compound 87b] ≤ 6.00

// for each compound in input: emit pIC50
1. O=C(NCCN1CCOCC1)c1cc(Oc2ccc(NC(=O)N3CCN(c4ccc(F)cc4)C3=O)cc2F)ccn1 [Compound 87d]
2. O=C(Nc1ccc(Oc2cc(NC(=O)N3CCCC3)ncn2)c(F)c1)C1CCN(c2ccccc2)C1=O (stereo not shown)
3. O=C(CC(Nc1ccc(Oc2cc(NC(=O)N3CCCC3)ncn2)c(F)c1)C(F)(F)F)Nc1ccccc1 (stereo not shown)
4. O=C(Nc1cc(Oc2ccc(NC(=O)N3CCN(c4ccccc4)C3=O)cc2F)ccn1)N1CCCC1 [Compound 18a]

1: < 6.00; 2: ≤ 6.00; 3: > 6.60; 4: 6.30 to 6.60

* * *

Please provide measured IC50 for the entries that follow.
- System: A549
- method.description: A549 wound healing inhibition
- applied.conditions: Homo sapiens; A549 cells; read-out: Potency in cell-based assays A549 wound healing inhibition

Some entries whose results are on file:
Fill in: IC50 of O=C(Nc1cc(Oc2ccc(NC(=O)N3CCN(c4ccccc4)C3=O)cc2F)ccn1)N1CCCC1 [Compound 18a] is ___ ≥ 1 µM

Fill in: IC50 of O=C(Nc1cc(Oc2ccc(NC(=O)N3CCN(c4ccccc4)C3=O)cc2F)ncn1)N1CCCC1 is ___ 1 to 5 µM

Fill in: IC50 of O=C(CC(Nc1ccc(Oc2cc(NC(=O)N3CCCC3)ncn2)c(F)c1)C(F)(F)F)Nc1ccccc1 (centres unmarked) is ___ 5 to 10 µM

Fill in: IC50 of COc1ccc(Nc2nccc(Oc3ccc(NC(=O)N4CCN(c5ccccc5)C4=O)cc3F)n2)cc1 [Compound 61b] is ___ 5 to 10 µM

Proceeding to the next compound to report its IC50.
Fill in: IC50 of CN(C)[C@H]1CCN(C(=O)Nc2cc(Oc3ccc(NC(=O)N4CCN(c5ccccc5)C4=O)cc3F)ccn2)C1 [Compound 18f] is ___ 1 to 5 µM
